Data provenance: Sander's compilation of Henry's law constants (doi:10.1021/jf001510f)

assay: Henry solubility constant Hcp at 310 K (mol/(m3 Pa)); details: reference: van Ruth et al. (2001)
Returns TRUE if the recorded Henry solubility constant Hcp at 310 K is greater than or equal to 0.02, and FALSE otherwise.

CCCCCCO : TRUE
CCCCOC(C)=O [butyl ethanoate] : FALSE
CCCCCCCCC(C)=O : FALSE
CCCCCCCC=O : FALSE

Assess whether reported Henry solubility constant Hcp at 310 K for CCCCCC(C)=O sits at 0.02 or higher.
TRUE

Assess whether reported Henry solubility constant Hcp at 310 K for CCCCCCC=O sits at 0.02 or higher.
FALSE

Assess whether reported Henry solubility constant Hcp at 310 K for CCCCCCC(C)=O sits at 0.02 or higher.
FALSE

Assess whether reported Henry solubility constant Hcp at 310 K for CCCC(=O)OCC [ethyl butanoate] sits at 0.02 or higher.
FALSE

Assess whether reported Henry solubility constant Hcp at 310 K for CC(C)CCO sits at 0.02 or higher.
TRUE

Assess whether reported Henry solubility constant Hcp at 310 K for CCOC(C)=O [ethyl ethanoate] sits at 0.02 or higher.
TRUE

Assess whether reported Henry solubility constant Hcp at 310 K for CCCCCCCC(C)O (stereo not given) sits at 0.02 or higher.
TRUE

Assess whether reported Henry solubility constant Hcp at 310 K for CCCO sits at 0.02 or higher.
TRUE

Assess whether reported Henry solubility constant Hcp at 310 K for CCCOC(C)=O [propyl ethanoate] sits at 0.02 or higher.
FALSE

Assess whether reported Henry solubility constant Hcp at 310 K for CSC [dimethyl sulfide] sits at 0.02 or higher.
FALSE

Assess whether reported Henry solubility constant Hcp at 310 K for CCCC(C)O (stereo not given) sits at 0.02 or higher.
TRUE
